Every entry's value here was drawn from patent US12534472B2.

- test: Thermodynamic solubility in water at pH 4.2
- Format: physicochemical
- condition notes: 30 mg/mL in water at pH 4.2, agitated at ambient temperature ca. 24 hours

{"compound": "CN1CCN(c2ccc(Nc3ncc4cc5n(c4n3)C3(CCCCC3)CNC5=O)nc2)CC1 [Pattern 3]", "Observations at T = 24 hours": "Yellow solution"}
{"compound": "CN1CCN(c2ccc(Nc3ncc4cc5n(c4n3)C3(CCCCC3)CNC5=O)nc2)CC1 [Pattern 1]", "Observations at T = 24 hours": "Yellow solution"}
{"compound": "CN1CCN(c2ccc(Nc3ncc4cc5n(c4n3)C3(CCCCC3)CNC5=O)nc2)CC1.Cl.Cl [Amorphous Di-HCl]", "Observations at T = 24 hours": "Yellow solution"}
